Target: menin/MLL (terbium chelate-labeled menin, FITC-MBM1 peptide) (Homo sapiens, UniProt O00255, T541A)
Construct: Menin (a.a 1-610-6xhis tag)
Sequence (O00255 with tags, fused parts or gaps T541A): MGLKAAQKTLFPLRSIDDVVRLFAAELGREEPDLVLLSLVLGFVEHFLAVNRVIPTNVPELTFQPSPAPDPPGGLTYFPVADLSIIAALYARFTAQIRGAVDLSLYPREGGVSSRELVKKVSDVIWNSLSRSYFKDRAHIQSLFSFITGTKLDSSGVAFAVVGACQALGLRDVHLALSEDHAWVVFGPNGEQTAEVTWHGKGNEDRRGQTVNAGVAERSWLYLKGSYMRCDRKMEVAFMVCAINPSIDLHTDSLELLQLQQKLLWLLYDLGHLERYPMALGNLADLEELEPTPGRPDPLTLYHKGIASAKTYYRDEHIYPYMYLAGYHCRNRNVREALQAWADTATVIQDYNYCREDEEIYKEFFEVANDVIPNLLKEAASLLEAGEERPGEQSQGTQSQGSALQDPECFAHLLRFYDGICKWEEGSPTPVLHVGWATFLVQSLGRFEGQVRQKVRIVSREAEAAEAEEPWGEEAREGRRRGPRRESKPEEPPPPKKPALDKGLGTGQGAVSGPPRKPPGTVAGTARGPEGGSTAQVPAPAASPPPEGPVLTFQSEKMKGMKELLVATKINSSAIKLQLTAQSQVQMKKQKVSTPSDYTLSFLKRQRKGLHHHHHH
Assay: Menin/MLL homogenous time-resolved fluorescence (HTRF) assay
Settings: 30 min incubation
Method: 1) Menin/MLL Homogenous Time-Resolved Fluorescence (HTRF) Assay […] Compound potencies were determined by first calculating % inhibition at each compound concentration according to equation 1: […] Where LC and HC are the HTRF values of the assay in the presence or absence of a saturating concentration of a compound that competes with FITC-MBM1 for binding to menin, and HTRF^compound is the measured HTRF value in the presence of the test compound. […]
measured-attribute: pIC50
# reply with the number alone; pIC50 is -log10 of concentration in mol/L

Worked examples, 3 compounds total:
* CC(C)C(C1CC(O)(c2cnn(C)c2)C1)N1CC2(CCN(c3ncnnc3Oc3ccc(F)cc3-c3cncnc3C3CC3)C2)C1 (stereo not shown) | 8.89
* CNC(=O)c1sc(N[C@H]2C[C@@H]([C@@H](C(C)C)N3CC4(CCN(c5ncnnc5Oc5ccc(F)cc5-c5cncnc5C5CC5)C4)C3)C2)nc1C (single isomer, unassigned) | 10.10
* CC(C)[C@H]([C@H]1C[C@@H](N2CC(O)C3(CC3)C2)C1)N1CC2(CCN(c3ncnnc3Oc3ccc(F)cc3-c3cncnc3C3CC3)C2)C1 (mixture of isomers) | 10.00

INPUT: Quick one: pIC50 of CC(C)[C@H]([C@H]1C[C@@H](N2CCC(C(=O)N(C)C)C2)C1)N1CC2(CCN(c3ncnnc3Oc3ccc(F)cc3-c3cncnc3C3CC3)C2)C1 (mixture of isomers) ?
OUTPUT: 10.00

====

Reported IC50 is given for each of the following molecules.
Target: menin/MLL (terbium chelate-labeled menin, FITC-MBM1 peptide) (Homo sapiens, UniProt O00255, T541A)
Construct: Menin (a.a 1-610-6xhis tag)
Assay: Menin/MLL homogenous time-resolved fluorescence (HTRF) assay
Details: 30 min incubation
Expressed in pM, but write only the number.

Guide cases for IC50, answers given:
- CC(C)[C@H]([C@H]1C[C@@H](N2CC[C@@]3(CCN(C)C3=O)C2)C1)N1CC2(CCN(c3ncnnc3Oc3ccc(F)cc3-c3cncnc3C3CC3)C2)C1 (single isomer, unassigned): 100
- CC(C)C([C@H]1C[C@@H](N2CC3(COC3)C2)C1)N1CC2(CCN(c3ncnnc3Oc3ccc(F)cc3-c3ncc(C#N)cc3C3CC3)C2)C1 (some centres unmarked): 500
- CC(C)[C@@H]([C@H]1C[C@@H](N2CC[C@](C)(O)C2)C1)N1CC2(CCN(c3ncnnc3Oc3ccc(F)cc3-c3cnncc3C3CC3)C2)C1 (single isomer, unassigned): 100
- CC(C)[C@@H]([C@H]1C[C@@H](N2C[C@H]3C[C@@H]2CO3)C1)N1CC2(CCN(c3ncnnc3Oc3ccc(F)cc3-c3cccnc3C3CC3)C2)C1 (single isomer, unassigned): 100

// next item, IC50 requested
INPUT: Query (molecule): CC(C)C([C@H]1C[C@@H](N2C[C@H]3COC[C@H]3C2)C1)N1CC2(CCN(c3ncnnc3Oc3ccc(F)cc3-c3cncc(C#N)c3C3CC3)C2)C1 (some centres unmarked) ; field requested: IC50
OUTPUT: 100

====

Target: menin/MLL (terbium chelate-labeled menin, FITC-MBM1 peptide) (Homo sapiens, UniProt O00255, T541A)
Construct: Menin (a.a 1-610-6xhis tag)
Assay: Menin/MLL homogenous time-resolved fluorescence (HTRF) assay
Settings: 30 min incubation
measured-attribute: IC50 (pM)
Return type: number; implicit unit pM.

These recorded examples may help you get a feel for the data.
• COC1CCN([C@H]2C[C@@H](C(C(C)C)N3CC4(CCN(c5ncnnc5Oc5ccc(F)cc5-c5cncnc5C5CC5)C4)C3)C2)CC1 (single isomer, unassigned) [Compound 16] = 100
• CC(C)[C@H]([C@H]1C[C@H](N2CC3(COC3)C2)C1)N1CC2(CCN(c3ncnnc3Oc3ccc(F)cc3-c3ncccc3C3CC3)C2)C1 (single isomer, unassigned) = 200
• CC(C)[C@@H]([C@H]1C[C@H](N2CCC(O)C(F)C2)C1)N1CC2(CCN(c3ncnnc3Oc3ccc(F)cc3-c3cncnc3C3CC3)C2)C1 (single isomer, unassigned) = 17200
• CC(C)[C@@H]([C@H]1C[C@@H](N(C)C)C1)N1CC2(CCN(c3ncnnc3Oc3ccc(F)cc3-c3nnccc3C3CC3)C2)C1 (single isomer, unassigned) [Compound 261a] = 160
• CC(C)C(C1CCN(CC2COC2)CC1)N1CC2(CCN(c3ncnnc3Oc3ccc(F)cc3-c3cncnc3C3CC3)C2)C1 (stereo not shown) = 300
• CC(C)[C@@H]([C@H]1C[C@@H](N2CCC3(COC3)C2)C1)N1CC2(CCN(c3ncnnc3Oc3ccc(F)cc3-c3cccnc3C3CC3)C2)C1 (single isomer, unassigned) = 100
• CO[C@H]1CCN([C@H]2C[C@@H]([C@H](C(C)C)N3CC4(CCN(c5ncnnc5Oc5ccc(F)cc5-c5nnc(C)cc5C5CC5)C4)C3)C2)C1 = 144
• CC(C)[C@H]([C@H]1C[C@@H](NC2CS(=O)(=O)C2)C1)N1CC2(CCN(c3ncnnc3Oc3ccc(F)cc3-c3cncnc3C3CC3)C2)C1 (single isomer, unassigned) = 500

The record that follows has no IC50 shown yet.
INPUT: Can you share its IC50? I mean this compound: CC(C)[C@H]([C@H]1C[C@@H](NC(=O)C2CC2)C1)N1CC2(CCN(c3ncnnc3Oc3ccc(F)cc3-c3nnccc3C3CC3)C2)C1 (single isomer, unassigned)
OUTPUT: 100
